- TARGET OF ASSAY: T1, recombinant human FGFR3c Fc fusion (human, UniProt P22607 141-372)
- T1 construct: also called FGFR3IIIc; not shown: Fc part of the FGFR-Fc fusion
- T1 sequence: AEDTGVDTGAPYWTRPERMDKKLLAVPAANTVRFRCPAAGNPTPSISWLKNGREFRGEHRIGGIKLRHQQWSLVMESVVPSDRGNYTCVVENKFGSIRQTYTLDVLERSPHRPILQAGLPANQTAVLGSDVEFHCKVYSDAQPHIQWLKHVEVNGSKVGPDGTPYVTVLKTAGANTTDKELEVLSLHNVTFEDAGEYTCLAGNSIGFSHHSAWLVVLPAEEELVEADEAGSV
- ASSAY PROTOCOL: ELISA, scFv on coated FGFR-Fc
ATTRIBUTE MEASURED: EC50

- Ab15 (scFv format) (scFv, also called FGF#26) scFv: EVQLLESGGGVVQPGRSLRLSCAASGFTFSSYAMHWVRQAPGKGLEWVAVISYDGSNKYYADSVKGRFTISRDNSKNTLSLQMNSLRVEDTAIYYCVRGAGRGYTYGPDGFDIWGQGTMVTVSSASTGGGGSGGGGSGGGGSGGGGSDIVMTQTPLSLSVTPGQPASISCTSSRSLLHSDGKTYVYWYVQKSGQPPQLLIYELSNRFSGVPDRFSGSGSRTDFTLKISRVEAEDVGVYYCMQYIEAPLTFGGGTKVEIKRTVAAPSHHHHHH: 0.326 nM
- Ab3 (scFv format) (scFv, also called FGF#78) scFv: EVQLVESGGGVVQPGRSLRLSCAASGFTFSQYSMHWVRQSPGKGLEWVTLISFDGADKYYADSVKGRFTISRDNSNDTLFLHMNGLRVEDTAIYYCVRGAGRGYTYGPDGFDIWGQGTMVTVSSASTGGGGSGGGGSGGGGSGGGGSDIQLTQSPSSLSASVGDRVTITCRTSQTISRYLNWYQQQPGKAPKLLIYTATSLQSGVPSRFSGSGSGTDFTLTIGGLQPEDFAIYFCQQTYSAPLTFGGGTKVEIKRTVAAPSHHHHHH: 2.02 nM

Any idea what its EC50 is? The binder is Ab7 (scFv format) (scFv, also called FGF#51) scFv: QVQLVESGGGVVQPGRSLRLSCAASGFTFSGYAIHWVRQAPGKGLEWVALISYDGSNKYYADSAKGRFTISRDNSKNTLSLQMNSLRVEDTAIYYCVRGAGRGYTYGPDGFDIWGQGTMVTVSSASTGGGGSGGGGSGGGGSGGGGSDIVMTQTPLSSPVTLGQPASISCRSSESLVYRDGNTYLSWLHQRPGQSPRLLIYKVSNRFSGVPDRFSGSGAGTDFTLKISRVEAEDVGVYFCMQATQFPWTFGQGTKVEIKRTVAAPSHHHHHH
1.36 nM

Entry Ab14 (scFv format) (scFv, also called FGF#24) scFv: EVQLVETGGGLIQPGGSLRLSCVASGFTVSSNYMSWVRQAPGKGLEWVSVIFSDGTTYYADSVKGRFTISRDNSKNTLYLQMNSLKTEDTAVYYCVAGPANGAYDIWGQGTMVTVSSASTGGGSGGGGSNIQMTQSPSILSASVGDRVTITCRASQSISNWLAWYQQKPGKAPKLLIFRASTLESGVPSRFSGSGSGAEFNLTISSLQPDDFATYYCQQYNVYSGTFGQGTKVEIKRTVAAPSHHHHHH : reported EC50 = ?
77.2 nM

Need EC50, item Ab4 (scFv format) (scFv, also called FGF#10) scFv: EVQLLESGGGVVQPGRSLRLSCAASGFTFSSYAMHWVRQAPGKGLEWVALISYDGSNKYYADSVKGRFTISRDNSKNTLYLQMNSLRAEDTAIYYCVRGAGRGYTYGPDGFDIWGQGTMVTVSSASTGGGSGGGGSDIVMTQTPLSLSVTPGQPASIFCKSSQSLIFGDGKTYLYWYLQKPGQPPRLLIYQVSNRFSGVPDRFSGSGAGTDFTLKISRVEAEDVGVYYCMQAKQFPWTFGQGTKLEIKRTVAAPSHHHHHH
25.9 nM
